# EXPERIMENT: yeast display, Sf9 membrane polyspecificity reagent, FACS + sequencing; frameworks hold sequencing errors
QUANTITY_NAME: polyreactivity (PSR sort gate)

{"columns": ["POLYMER_SEQUENCE", "polyreactivity (PSR sort gate)"],
 "data": [
  ["QVQVVESGGGLVQAGGSLRLSCAASGSTFSRNAMGWYRQAPGKERELVAAINYSGGITYYADSVKGRFTISRDNAKNTVYLQMNSQKPEDTAVYYCAAVATNVPTHGRPSRRAYDYWGQGTQVTVSS", "low polyreactivity"],
  ["QVQLVESGGGLVQAGGSLRLSCAASGLIFVHYDMGWYRQAPGKERELVAAISAGGGSTYYADSVKGRFTISRYNSKNTVYLQMNSLLPEDTAVYYCIARVVNYFRPRTGAREYDFWGQGTQGTVSS", "high polyreactivity"],
  ["QVQLVESGGGLVQAGGSLRLSCAASGRTFTWNAMGWYRQAPGKERELVADITNNGGSTYYADSVKGRFTISRDNAKNTVYLQMNSLKPEDTAVYYCAKRRNYWFSFDYWGQGTQVTVSS", "low polyreactivity"],
  ["QVQLVESGGGLVQAGGSLRLSCAASGRIFRYYAMGWYRQAPGKERELVAAISGGRTYYADSVKGRFTISRDNAKNTVYLQMNSLKPEDTAVYYCNAGGIVWTGYWYDYDYWGQGTQVTVSS", "high polyreactivity"]
]}

// batch mode: one polyreactivity (PSR sort gate) value per listed entry
1. QVQHVESGGGLVQAGGSLRLSCAASGSIFWVYVMGRYIQAPGQERELVAAITNGGSTDYADSVKGRFTISRDNAKNTVYLQMNSLKPEDTAFYYCAKRSTIWGRILITFDYWGQGTQVTVSS
2. QVQLVESGGGLVQAGGSLRLSCAASGSIFDVYAMGWYRQAPGKERELVAAIRTRGGSTYYADSVKGRFTISRDNAKNTVYLQMNSLKPEDTAVYYCAAGGETVIPWFDDYYWGQGTQVTVSS
3. QVQLVESGGGLVQAGGSLRLSCAASGSTLVRYAMGWYRQAPGKEREFVAAISWTGGSTYYADSVKGRFTISRDYAKNTVYLQMNSLKPEDTAVYYCSAEYFRGPSYSYWGQGTQVTVSS

## Result
1: low polyreactivity; 2: low polyreactivity; 3: high polyreactivity

// batch mode: one polyreactivity (PSR sort gate) value per listed entry
1. QVQLVESGGGLVQAGGSLRLSCAASGFIFVRYAMGWYRLAPGKEREFVAAISGGAGSSYYADSVKGRFTISRDNAKNTVYLQMNSLKPEDTAVYYCNRVRSLRYGYWGQGTQVTVSS
2. QVQLVESGGGLVQAGGSLRLSSAASGSIIKYYAMGWYRQAPGKERELVAAINKSGGTTYYADSVKGRFTISRDNAQNPVYLQMNSLKPEDTAVYYCATDNTVVYQPGNMDFWGQGTQVTVSS
3. QVQLVESGGGLVQAGGSLRLSCAASGFIFAEYAMGWYRQAPGKERELVVAIDVGGGSTYYADSVKGRFTISRDNAKNTVYLQMNSLKPEDTAVYYCAATQYGYWVPYQGFDYWGQGTQVTVSS
4. QVQLVESGGGLVQAGGSLRLSCAASGFTFSYYAMGWYRQAPGKERELVAAISWSGTAMYYADSVKGRFTISRDNAKNTVYLQMNSLKPEDTAVYYCAAGYSASRKVDYWGQGTQVTVSS

## Result
["high polyreactivity", "low polyreactivity", "low polyreactivity", "high polyreactivity"]
